Value source: patent US10221139B2

Exercise: for every item that follows, state its recorded pIC50.
System: demethylation of H3K4 (H3K4me3 mark) in U2OS cells
Assay Summary: Histone lysine demethylase immunofluorescence assay, non-transfected U2OS cells (H3K4me3 staining)
Format: cell-based
Reported Conditions: Homo sapiens, 20 hours
Description: Histone Lysine Demethylase Immunofluorescence Assays for IC50 Value Determination, Non-Transfected Cells U2OS cells were harvested and seeded into multi well plates into media containing compound. The media used was DMEM containing 5% FBS and pen/strep. 20 hours after incubation of cells with compounds, the cells were washed once in PBS, harvested by fixation with formaldehyde 4% aqueous solution, and washed 2 times in PBS. […]
pIC50: −log10 of the molar value.

Input: Form field: reported pIC50 of COC(=O)c1ccnc(CNCCCN2CCCC2)c1 [drawing 224]
Output: 4.30 to 6.00

Input: Form field: reported pIC50 of C=CC(CCN(C)C(=O)C(F)(F)F)OC(=O)c1ccnc(CNCC(=O)N(CC)CCN(C)C)c1 (centres unmarked) [drawing 243]
Output: > 6.00

Input: Form field: reported pIC50 of CCN(CC)CCCCNCc1cc(C(=O)O)ccn1 [drawing 225]
Output: 4.30 to 6.00

Input: Form field: reported pIC50 of CCN(CCN(C)C)C(=O)CNCc1cc(C(=O)OCC(F)(F)F)ccn1 [drawing 251]
Output: > 6.00

Input: Form field: reported pIC50 of CCN(CCN(C)C)C(=O)CNCc1cc(C(=O)OC)ccn1 [drawing 246]
Output: > 6.00

----------
Exercise: for every item that follows, state its recorded IC50.

Input: Tell me reported IC50 for CCCCN(C)C(=O)CNCc1cc(C(=O)O)ccn1 , tested with UniProt P41229.
Sequence (P41229 2-1560): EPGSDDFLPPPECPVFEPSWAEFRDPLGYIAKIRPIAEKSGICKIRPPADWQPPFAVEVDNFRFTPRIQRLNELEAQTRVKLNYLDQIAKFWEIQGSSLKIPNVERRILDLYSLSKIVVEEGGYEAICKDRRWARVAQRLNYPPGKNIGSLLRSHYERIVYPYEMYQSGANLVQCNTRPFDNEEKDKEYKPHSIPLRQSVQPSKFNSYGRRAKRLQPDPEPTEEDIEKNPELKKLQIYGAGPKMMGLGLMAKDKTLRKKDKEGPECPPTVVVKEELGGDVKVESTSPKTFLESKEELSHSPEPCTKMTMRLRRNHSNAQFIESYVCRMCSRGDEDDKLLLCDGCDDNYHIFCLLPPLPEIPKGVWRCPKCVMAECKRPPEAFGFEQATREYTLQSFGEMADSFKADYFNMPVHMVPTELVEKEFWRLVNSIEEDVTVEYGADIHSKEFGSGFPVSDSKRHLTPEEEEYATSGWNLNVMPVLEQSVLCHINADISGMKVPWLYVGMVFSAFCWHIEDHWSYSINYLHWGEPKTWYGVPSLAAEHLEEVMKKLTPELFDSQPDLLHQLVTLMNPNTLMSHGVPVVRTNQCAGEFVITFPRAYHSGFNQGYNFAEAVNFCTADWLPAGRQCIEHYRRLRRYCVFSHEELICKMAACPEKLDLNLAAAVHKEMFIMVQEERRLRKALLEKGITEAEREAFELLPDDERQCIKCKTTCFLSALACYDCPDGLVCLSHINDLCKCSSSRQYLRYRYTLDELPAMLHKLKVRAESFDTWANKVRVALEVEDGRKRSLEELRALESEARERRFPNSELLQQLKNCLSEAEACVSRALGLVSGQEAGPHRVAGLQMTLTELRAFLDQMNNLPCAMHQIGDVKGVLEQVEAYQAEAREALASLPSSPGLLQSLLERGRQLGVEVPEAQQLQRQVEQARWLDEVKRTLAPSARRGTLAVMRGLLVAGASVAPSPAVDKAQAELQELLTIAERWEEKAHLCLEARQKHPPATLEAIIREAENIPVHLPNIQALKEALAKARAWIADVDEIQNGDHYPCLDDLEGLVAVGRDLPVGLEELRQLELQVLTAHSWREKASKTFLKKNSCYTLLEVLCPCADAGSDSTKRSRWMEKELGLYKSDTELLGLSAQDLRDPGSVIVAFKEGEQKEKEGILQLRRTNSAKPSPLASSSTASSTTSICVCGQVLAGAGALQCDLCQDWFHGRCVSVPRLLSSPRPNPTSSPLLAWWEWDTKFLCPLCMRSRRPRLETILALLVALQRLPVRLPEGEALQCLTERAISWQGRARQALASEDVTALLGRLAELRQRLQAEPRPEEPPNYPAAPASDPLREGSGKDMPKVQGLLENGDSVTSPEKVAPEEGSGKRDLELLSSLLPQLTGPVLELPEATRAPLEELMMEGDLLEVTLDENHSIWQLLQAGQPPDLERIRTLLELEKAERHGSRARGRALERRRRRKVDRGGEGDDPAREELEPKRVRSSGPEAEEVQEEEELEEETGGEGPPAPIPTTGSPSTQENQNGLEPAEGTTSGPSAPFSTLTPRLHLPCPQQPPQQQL
Output: < 100 nM

Input: Tell me reported IC50 for O=C(O)c1ccnc(CNCC(=O)N2CCCC2)c1 , tested with UniProt P41229.
Output: < 100 nM

Input: Tell me reported IC50 for CCN(CC)CCCCNCc1cc(C(=O)O)ccn1 , tested with UniProt P41229.
Output: < 100 nM

----------
pIC50: −log10 of the molar value.
// UTX (KDM6A) (Homo sapiens) pIC50 records

Input: Form field: reported pIC50 of O=C(CNCc1cc(C(=O)O)ccn1)NC1CCN(Cc2ccco2)CC1
Output: 6.00 to 7.00

Input: Form field: reported pIC50 of CN(Cc1ccnn1C)C(=O)CNCc1cc(C(=O)O)ccn1
Output: ≤ 6.00

Input: Form field: reported pIC50 of O=C(CNCc1cc(C(=O)O)ccn1)NC1CCN(CCc2ccccc2)C1 (stereo not shown)
Output: ≤ 6.00

Input: Form field: reported pIC50 of CCN(CCN(C)C)C(=O)CNCc1cc(C(=O)OCC(F)F)ccn1
Output: > 7.00

Input: Form field: reported pIC50 of O=C(CNCc1cc(C(=O)O)ccn1)NC1CCN(CCCc2ccccc2)CC1
Output: ≤ 6.00

Input: Form field: reported pIC50 of O=C(O)c1ccnc(CNCCCNCCCN2CCCC2)c1
Output: ≤ 6.00

Input: Form field: reported pIC50 of CN(C)CCN(C)Cc1cc(C(=O)O)ccn1
Output: ≤ 6.00

Input: Form field: reported pIC50 of CCCCN1CCCC1CCNCc1cc(C(=O)O)ccn1 (stereo not shown)
Output: ≤ 6.00

Input: Form field: reported pIC50 of O=C(O)c1ccnc(CNCC(=O)N2CCCC2)c1
Output: ≤ 6.00

Input: Form field: reported pIC50 of CCN(CC)CCCCNCc1cc(C(=O)O)ccn1
Output: ≤ 6.00

Input: Form field: reported pIC50 of O=C(O)c1ccnc(CNCCCn2ccnc2)c1
Output: ≤ 6.00

Input: Form field: reported pIC50 of CN(C)CCNCc1cc(C(=O)O)ccn1
Output: ≤ 6.00

Input: Form field: reported pIC50 of O=C(O)c1ccnc(CNCCF)c1
Output: ≤ 6.00

Input: Form field: reported pIC50 of CCOC(=O)c1ccccc1OC(=O)c1ccnc(CNCCCCN(CC)CC)c1
Output: ≤ 6.00

Input: Form field: reported pIC50 of CSCCNCc1cc(C(=O)O)ccn1
Output: ≤ 6.00

Input: Form field: reported pIC50 of CCN(CCN(C)C)C(=O)CNCc1cc(C(=O)OCCF)ccn1
Output: > 7.00

Input: Form field: reported pIC50 of CC(C)=CCCC(C)CCN1CCC(NC(=O)CNCc2cc(C(=O)O)ccn2)C1 (stereo not shown)
Output: ≤ 6.00

Input: Form field: reported pIC50 of O=C(O)c1ccnc(CNC[C@@H](O)CO)c1
Output: ≤ 6.00

Input: Form field: reported pIC50 of COc1ccc(CNCc2cc(C(=O)O)ccn2)c(OC)c1
Output: ≤ 6.00

Input: Form field: reported pIC50 of CCOC(=O)N(C)c1ccc(COC(=O)c2ccnc(CNCCCCN(CC)CC)c2)cc1
Output: > 7.00

Input: Form field: reported pIC50 of C=CC(CCNC(=O)C(F)(F)F)OC(=O)c1ccnc(CNCC(=O)N(CC)CCN(C)C)c1 (stereo not shown)
Output: > 7.00

Input: Form field: reported pIC50 of CC(C)(C)OC(=O)N1CC[C@@H](NCc2cc(C(=O)O)ccn2)C1
Output: ≤ 6.00

Input: Form field: reported pIC50 of O=C(O)c1ccnc(CNCc2ccc(-c3ccccc3)o2)c1
Output: ≤ 6.00

Input: Form field: reported pIC50 of O=C(O)c1ccnc(CN[C@@H]2CCN(CCCc3ccccc3)C2)c1
Output: ≤ 6.00

Input: Form field: reported pIC50 of C=CC(CCN(C)C(=O)C(F)(F)F)OC(=O)c1ccnc(CNCC(=O)N(CC)CCN(C)C)c1 (stereo not shown)
Output: > 7.00

----------
Exercise: for every item that follows, state its recorded pIC50.
Target Or Test System: PLU1 (KDM5B) (Homo sapiens)
Construct: 1-809; host or cells: E. coli
Sequence (Q9UGL1 1-809): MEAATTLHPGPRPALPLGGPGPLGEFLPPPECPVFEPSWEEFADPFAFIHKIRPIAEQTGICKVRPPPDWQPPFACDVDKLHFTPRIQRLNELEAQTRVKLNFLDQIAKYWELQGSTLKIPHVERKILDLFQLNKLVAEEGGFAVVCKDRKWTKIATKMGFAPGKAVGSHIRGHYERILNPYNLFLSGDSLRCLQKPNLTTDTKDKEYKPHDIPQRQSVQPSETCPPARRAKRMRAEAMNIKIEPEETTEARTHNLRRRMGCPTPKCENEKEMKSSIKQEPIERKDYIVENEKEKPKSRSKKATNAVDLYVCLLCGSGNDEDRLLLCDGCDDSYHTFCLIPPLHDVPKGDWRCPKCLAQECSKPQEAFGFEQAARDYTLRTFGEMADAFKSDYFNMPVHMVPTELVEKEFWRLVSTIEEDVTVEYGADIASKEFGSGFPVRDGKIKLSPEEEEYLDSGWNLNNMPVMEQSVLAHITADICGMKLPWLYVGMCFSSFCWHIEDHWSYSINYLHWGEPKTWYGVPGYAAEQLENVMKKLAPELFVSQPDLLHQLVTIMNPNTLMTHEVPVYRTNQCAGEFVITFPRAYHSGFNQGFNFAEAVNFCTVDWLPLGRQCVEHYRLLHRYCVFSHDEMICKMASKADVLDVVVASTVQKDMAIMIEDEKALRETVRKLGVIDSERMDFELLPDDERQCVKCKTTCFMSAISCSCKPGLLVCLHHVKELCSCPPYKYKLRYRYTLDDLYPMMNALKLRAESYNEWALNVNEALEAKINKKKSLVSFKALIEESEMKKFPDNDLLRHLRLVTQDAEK
Assay Summary: Histone lysine demethylase AlphaLISA assay, PLU1
Type: biochemical
Reported Conditions: substrate H3K4M3B
Method: Example 2: Histone Lysine Demethylase AlphaLISA Assays for IC50 Value Determination Assays are performed analogously to the protocol described by Perkin Elmer (Roy et al. Perkin Elmer Technical Note: AlphaLISA #12, April 2011). Enzymes are dissolved in enzyme buffer and incubated for 10 min before 5 μL is added to 5 μL 3% DMSO solutions of compounds in enzyme buffer. […] After incubation at room temperature in the dark the plates are read. […]
pIC50: −log10 of the molar value.

Input: Form field: reported pIC50 of COc1ccccc1CN1CCC(NC(=O)CNCc2cc(C(=O)O)ccn2)CC1
Output: > 7.00

Input: Form field: reported pIC50 of CCN(CCN(C)C)C(=O)CNCc1cc(C(=O)Oc2ccc(OC)cc2)ccn1
Output: > 7.00

Input: Form field: reported pIC50 of CN(Cc1ccnn1C)C(=O)CNCc1cc(C(=O)O)ccn1
Output: > 7.00

Input: Form field: reported pIC50 of CCN(CCN(C)C)C(=O)CNCc1cc(C(=O)N2CCOC2=O)ccn1
Output: > 7.00

Input: Form field: reported pIC50 of O=C(O)c1ccnc(CNCc2ccc(-c3ccccc3)o2)c1
Output: 6.00 to 7.00

Input: Form field: reported pIC50 of CSCCNCc1cc(C(=O)O)ccn1
Output: > 7.00

----------
Exercise: for every item that follows, state its recorded IC50.
Target Or Test System: GASC1 (KDM4C) (Homo sapiens)
Construct: Full length
Sequence (Q9H3R0 whole entry): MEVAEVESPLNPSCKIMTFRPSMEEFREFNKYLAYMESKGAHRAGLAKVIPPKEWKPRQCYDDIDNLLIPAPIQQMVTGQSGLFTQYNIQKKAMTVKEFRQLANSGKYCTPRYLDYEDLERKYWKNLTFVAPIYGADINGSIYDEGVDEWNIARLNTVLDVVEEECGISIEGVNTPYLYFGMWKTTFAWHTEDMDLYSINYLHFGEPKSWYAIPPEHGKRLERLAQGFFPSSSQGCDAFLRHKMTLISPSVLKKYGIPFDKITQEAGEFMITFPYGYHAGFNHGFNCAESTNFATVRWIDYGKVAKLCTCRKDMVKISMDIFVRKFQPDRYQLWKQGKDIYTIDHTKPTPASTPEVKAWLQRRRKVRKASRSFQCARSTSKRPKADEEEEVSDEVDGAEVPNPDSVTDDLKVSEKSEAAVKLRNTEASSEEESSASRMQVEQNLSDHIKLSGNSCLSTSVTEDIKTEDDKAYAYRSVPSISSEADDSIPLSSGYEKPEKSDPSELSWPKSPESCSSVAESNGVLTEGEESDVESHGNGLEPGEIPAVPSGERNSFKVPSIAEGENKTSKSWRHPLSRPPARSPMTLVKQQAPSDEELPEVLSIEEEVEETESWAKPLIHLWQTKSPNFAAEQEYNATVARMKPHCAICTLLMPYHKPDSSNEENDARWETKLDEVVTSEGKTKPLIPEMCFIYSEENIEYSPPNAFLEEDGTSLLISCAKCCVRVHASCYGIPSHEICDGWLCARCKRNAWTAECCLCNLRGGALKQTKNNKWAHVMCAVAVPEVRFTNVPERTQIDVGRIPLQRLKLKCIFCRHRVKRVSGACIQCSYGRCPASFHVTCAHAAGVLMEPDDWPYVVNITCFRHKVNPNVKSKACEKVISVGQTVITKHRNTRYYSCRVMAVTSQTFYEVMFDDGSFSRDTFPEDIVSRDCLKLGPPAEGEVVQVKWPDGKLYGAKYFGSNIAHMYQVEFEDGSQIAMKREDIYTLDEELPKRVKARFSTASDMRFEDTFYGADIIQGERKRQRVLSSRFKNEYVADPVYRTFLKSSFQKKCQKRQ
Assay Summary: Immunofluorescence assay in U2OS cells transfected with pCMVHA JMJD2C (H3K9me3 mark)
Reported Conditions: 20 hours

Input: Form field: reported IC50 of COCCN1CCN(C(=O)CNCc2cc(C(=O)O)ccn2)CC1 [drawing 308]
Output: > 50 µM

Input: Form field: reported IC50 of CCN(CC)CCCCNCc1cc(C(=O)OCCCN(C)C)ccn1 [drawing 332]
Output: 1 to 50 µM

Input: Form field: reported IC50 of C#CCN(C)Cc1cc(C(=O)O)ccn1 [drawing 302]
Output: > 50 µM

Input: Form field: reported IC50 of O=C(O)c1ccnc(CNC[C@@H](O)CO)c1 [drawing 298]
Output: > 50 µM

Input: Form field: reported IC50 of O=C(CNCc1cc(C(=O)O)ccn1)NC1CCN(CCCc2ccccc2)CC1 [drawing 317]
Output: > 50 µM

----------
Exercise: for every item that follows, state its recorded IC50.
Target Or Test System: FBXL10 (KDM2B) (Homo sapiens)
Sequence (Q8NHM5 1-650): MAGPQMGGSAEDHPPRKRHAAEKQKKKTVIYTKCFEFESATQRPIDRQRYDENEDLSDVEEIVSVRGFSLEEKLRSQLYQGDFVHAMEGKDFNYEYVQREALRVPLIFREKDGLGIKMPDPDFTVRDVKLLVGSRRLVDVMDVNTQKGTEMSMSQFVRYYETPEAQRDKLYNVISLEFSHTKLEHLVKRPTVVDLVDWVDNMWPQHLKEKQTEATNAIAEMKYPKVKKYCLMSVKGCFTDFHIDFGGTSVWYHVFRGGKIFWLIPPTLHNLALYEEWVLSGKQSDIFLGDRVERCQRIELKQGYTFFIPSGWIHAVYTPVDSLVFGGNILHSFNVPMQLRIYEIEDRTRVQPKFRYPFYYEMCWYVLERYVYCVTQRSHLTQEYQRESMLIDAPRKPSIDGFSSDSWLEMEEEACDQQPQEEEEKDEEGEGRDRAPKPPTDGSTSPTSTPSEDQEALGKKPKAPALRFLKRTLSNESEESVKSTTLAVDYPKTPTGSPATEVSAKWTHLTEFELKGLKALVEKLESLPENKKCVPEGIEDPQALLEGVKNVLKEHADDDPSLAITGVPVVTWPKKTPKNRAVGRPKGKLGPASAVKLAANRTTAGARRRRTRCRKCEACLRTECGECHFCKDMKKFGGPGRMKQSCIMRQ

Input: Form field: reported IC50 of CC(C)=CCCC(C)CCN1CCC(NC(=O)CNCc2cc(C(=O)O)ccn2)C1 (stereo not shown) [#35]
Output: 0.1 to 1 µM

Input: Form field: reported IC50 of O=C(O)c1ccnc(CN(CC(=O)N2CCCCC2)Cc2ccccc2)c1 [#83]
Output: 0.1 to 1 µM

Input: Form field: reported IC50 of COc1ccccc1CN1CCC(NC(=O)CNCc2cc(C(=O)O)ccn2)CC1 [#29]
Output: < 0.1 µM

Input: Form field: reported IC50 of CCCCN(CC(=O)N1CCCCC1)Cc1cc(C(=O)O)ccn1 [#82]
Output: 0.1 to 1 µM

Input: Form field: reported IC50 of CCCCCCCCCCCCCCCC(=O)OCC(COC(=O)CCCCCCCCCCCCCCC)OC(=O)c1ccnc(CNCC(=O)N(CC)CCN(C)C)c1 [#68]
Output: ≥ 1 µM

Input: Form field: reported IC50 of CCN(CCN(C)C)C(=O)CNCc1cc(C(=O)N(C)S(C)(=O)=O)ccn1 [#71]
Output: 0.1 to 1 µM

Input: Form field: reported IC50 of CCCCN(C)C(=O)CNCc1cc(C(=O)O)ccn1 [#14]
Output: < 0.1 µM

Input: Form field: reported IC50 of CCN(CCN(C)C)C(=O)CNCc1cc(C(=O)OCCF)ccn1 [#90]
Output: ≥ 1 µM

Input: Form field: reported IC50 of CCN(CCN(C)C)C(=O)CNCc1cc(C(=O)OC)ccn1 [#70]
Output: ≥ 1 µM

Input: Form field: reported IC50 of CC(C)C[C@H](NCc1cc(C(=O)O)ccn1)C(=O)NC(C)(C)C [#92]
Output: 0.1 to 1 µM
